FYI, the data here is from ChEMBL document CHEMBL1201862.

Listing of entries alongside the reported GI50.
system: NCI-H23; assay: NCI tumour cell line growth inhibition, 48 h
Calls of active or inactive are those of the source. Cut-off read from the data, not from the text of the source: active = GI50 up to about 1.1 µM and inactive = higher.

>  <molecule>
CC(=O)C1CCN(c2ccccc2)C1 (stereo not given)

>  <metric>
GI50

>  <result>
> 100 µM (inactive)

$$$$
>  <molecule>
O=C(Nc1nnc(-c2ccc(Cl)cc2)o1)C(SC(=S)N1CCCCC1)c1ccccc1 (stereo not given)

>  <metric>
GI50

>  <result>
21.9 µM (inactive)

$$$$
>  <molecule>
COC(=O)C(=O)C(C(=O)Nc1cccc(C)c1C)C1Sc2ccccc2NC1=O (stereo not given)

>  <metric>
GI50

>  <result>
> 25 µM (inactive)

$$$$
>  <molecule>
O=C1OC(CN2CCN(c3ccccc3)CC2)CN1C(=S)Nc1ccccc1 (stereo not given)

>  <metric>
GI50

>  <result>
> 100 µM (inactive)

$$$$
>  <molecule>
N#CC12Cc3ccc4c(c3-c3cccc(c31)CCN2C(=O)c1ccccc1)OCO4 (stereo not given)

>  <metric>
GI50

>  <result>
> 100 µM (inactive)

$$$$

// GI50 value for O=C1O[C@]2(c3ccccc3)C(c3ccccc3)=C[C@]2(C(=O)c2ccccc2)C1=O : 33.7 µM (inactive)

// GI50 value for OC(c1ccsc1)c1cc2ccccc2s1 (stereo not given) : > 10 µM (inactive)

// GI50 value for CN1CCCC2[C@@H]3CCC4=C(O)C(=O)CC[C@]4(C)C3CC[C@@]21C (stereo not given in full) : > 100 µM (inactive)

// GI50 value for CN(C)c1ccc(/C=C(\NC(=O)c2ccccc2)C(=O)NC(CCC(=O)O)C(=O)O)cc1 (stereo not given) : > 100 µM (inactive)

// GI50 value for CCC(=O)c1c(NOC2OCC(OC(C)=O)C(OC(C)=O)C2OC(C)=O)nc(OC)n(C)c1=O (stereo not given) : > 100 µM (inactive)
